Tested on: HEK293T (UBE3A T485A transfected, BAR Wnt reporter)
assay text: Wnt reporter firefly/Renilla luciferase ratio relative to plate median (fold (linear ratio)); higher = more Wnt/beta-catenin reporter activation
condition context: concentration: 1 uM; 24 h
The full ranking holds about 1,100 compounds; the median of “Wnt reporter firefly/Renilla luciferase ratio relative to plate median” is about 1.1, and the highest 2% start at about 1.6. Many of the other results were omitted from the sample, so the highest values are more common in it than they were.
Outcome: Criterion met for Wnt reporter firefly/Renilla luciferase ratio of at least 0.9; Criterion not met for anything lower.

See these solved cases before continuing.
- compound: "CCC(CC)Nc1c([N+](=O)[O-])cc(C)c(C)c1[N+](=O)[O-]"
  category: "Criterion met"
- compound: "CON=C(C(=O)OC)c1ccccc1CON=C(C)c1cccc(C(F)(F)F)c1"
  category: "Criterion met"
- compound: "COS(C)(=O)=O [Methyl methanesulfonate]"
  category: "Criterion not met"
- compound: "NCCO.O=C(O)c1nc(Cl)ccc1Cl"
  category: "Criterion met"

Now look at this entry.
INPUT: Item C#CCOS(=O)OC1CCCCC1Oc1ccc(C(C)(C)C)cc1 (configuration not stated) with Wnt reporter firefly/Renilla luciferase ratio of 0.9 or above?
OUTPUT: Criterion met
